Overview of recorded Kd for various binders
target: T1, recombinant soluble PSMA (rsPSMA) (human, UniProt Q04609 44-750); assay: Biacore, rsPSMA
T1 construct: also called rsPSMA dimer; secreted rsPSMA
T1 sequence (Q04609 44-750): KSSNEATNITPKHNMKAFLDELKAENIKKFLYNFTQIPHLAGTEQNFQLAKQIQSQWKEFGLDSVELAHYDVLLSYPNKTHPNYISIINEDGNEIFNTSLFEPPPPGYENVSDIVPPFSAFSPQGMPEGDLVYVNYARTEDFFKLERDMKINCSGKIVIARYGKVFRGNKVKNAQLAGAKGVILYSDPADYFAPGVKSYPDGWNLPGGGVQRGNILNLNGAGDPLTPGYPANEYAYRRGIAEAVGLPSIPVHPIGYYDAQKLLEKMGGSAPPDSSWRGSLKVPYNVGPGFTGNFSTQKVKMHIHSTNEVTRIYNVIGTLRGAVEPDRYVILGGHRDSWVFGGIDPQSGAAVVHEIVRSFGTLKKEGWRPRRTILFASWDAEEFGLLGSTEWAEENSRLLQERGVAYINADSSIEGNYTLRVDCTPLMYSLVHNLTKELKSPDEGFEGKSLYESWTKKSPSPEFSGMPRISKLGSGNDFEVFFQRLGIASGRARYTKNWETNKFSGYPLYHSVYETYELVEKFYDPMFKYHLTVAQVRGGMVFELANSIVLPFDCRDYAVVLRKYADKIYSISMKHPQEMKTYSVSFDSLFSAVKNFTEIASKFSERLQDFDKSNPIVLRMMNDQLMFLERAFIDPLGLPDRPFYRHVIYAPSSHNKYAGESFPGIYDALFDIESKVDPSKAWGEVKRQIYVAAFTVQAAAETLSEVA
# output: bare number, implied unit nM

Below, 3 binders whose answers are already recorded.
- binder: "AB-PG1-XG1-051 (antibody, V domains shown, also called XG-051; PRGX1-XG1-051) VH: QVQLVESGGGVVQPGRSLRLSCAASGFTFSSYGMHWVRQAPGKGLDWVAIIWHDGSNKYYADSVKGRFTISRDNSKKTLYLQMNSLRAEDTAVYYCARAWAYDYGDYEYYFGMDVWGQGTTVTVSS VL: DIQMTQSPSSLSASVGDRVTITCRASQGISHYLAWFQQKPGKAPKSLIYAASSLQSGVPSKFSGSGSGTDFTLTISSLQPEDFATYYCQQYNSFPLTFGGGTKVEIK"
  scale.unit: "nM"
  Kd: 0.58
- binder: "AB-PG1-XG1-077 (antibody, V domains shown, also called PRGX1-XG1-077) VH: QVQLVESGGGVVQPGRSLRLSCAASGFTFISYGMHWVRQAPGKGLEWVAVISYDGSNKYYADSVKGRFTISRDNSKNTLYLQMNSLRAEDTAVYYCARVLVGALYYYNYYGMDVWGQGTTVTVSS VL: DIVMTQTPLSLSVTPGQPASISCKSSQSLLHSDGKTFLYWYLQKPGQPPQLLIYEVSNRFSGVPDRFSGSGSGTDFTLKISRVEAEDVGLYYCMQSIQLPLTFGGGTKVEIK"
  scale.unit: "nM"
  Kd: 1.6
- binder: "AB-PG1-XG1-026 (antibody, V domains shown, also called XG-026; PRGX1-XG1-026) VH: QVQLVESGGGVVQPGRSLRLSCAASGFTFSNYVMHWVRQAPGKGLEWVAIIWYDGSNKYYADSVKGRFTISRDNSKNTLYLQMNSLRAEDTAVYYCAGGYNWNYEYHYYGMDVWGQGTTVTVSS VL: DIQMTQSPSSLSASVGDRVTITCRASQGITNYLAWFQQKPGKAPKSLIYAASSLQSGVPSKFSGSGSGTDFSLTISSLQPEDFATYYCQQYNSYPITFGQGTRLEIK"
  scale.unit: "nM"
  Kd: 0.2

Ask: Entry AB-PG1-XG1-006 (antibody, V domains shown, also called XG-006; PRGX1-XG1-006) VH: QVQLVESGGGVVQPGRSLRLSCAASGFAFSRYGMHWVRQAPGKGLEWVAVIWYDGSNKYYADSVKGRFTISRDNSKNTQYLQMNSLRAEDTAVYYCARGGDFLYYYYYGMDVWGQGTTVTVSS VL: DIQMTQSPSSLSASVGDRVTITCRASQGISNYLAWYQQKTGKVPKFLIYEASTLQSGVPSRFSGGGSGTDFTLTISSLQPEDVATYYCQNYNSAPFTFGPGTKVDIK : reported Kd = ?
Reply: 0.48
